Hi there, I'd appreciate the recorded DPP4 activity in library screen, Exp 3 for every entry that follows.
target: DPP4 (Homo sapiens); test: DPP4 activity assay (DPP4 inhibitor screening assay kit, Cayman); format: biochemical; set-up: purchased Cayman Chemical, Ann Arbor, MI, USA; conditions: 10 µM; control mean 100.0; Figure 1A raw data;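 note: fluorescence read at excitation 360 nm and emission 460 nm after the enzyme reaction ran 30 min at 37 °C in a 96-well plate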
Sequence (P27487 whole entry): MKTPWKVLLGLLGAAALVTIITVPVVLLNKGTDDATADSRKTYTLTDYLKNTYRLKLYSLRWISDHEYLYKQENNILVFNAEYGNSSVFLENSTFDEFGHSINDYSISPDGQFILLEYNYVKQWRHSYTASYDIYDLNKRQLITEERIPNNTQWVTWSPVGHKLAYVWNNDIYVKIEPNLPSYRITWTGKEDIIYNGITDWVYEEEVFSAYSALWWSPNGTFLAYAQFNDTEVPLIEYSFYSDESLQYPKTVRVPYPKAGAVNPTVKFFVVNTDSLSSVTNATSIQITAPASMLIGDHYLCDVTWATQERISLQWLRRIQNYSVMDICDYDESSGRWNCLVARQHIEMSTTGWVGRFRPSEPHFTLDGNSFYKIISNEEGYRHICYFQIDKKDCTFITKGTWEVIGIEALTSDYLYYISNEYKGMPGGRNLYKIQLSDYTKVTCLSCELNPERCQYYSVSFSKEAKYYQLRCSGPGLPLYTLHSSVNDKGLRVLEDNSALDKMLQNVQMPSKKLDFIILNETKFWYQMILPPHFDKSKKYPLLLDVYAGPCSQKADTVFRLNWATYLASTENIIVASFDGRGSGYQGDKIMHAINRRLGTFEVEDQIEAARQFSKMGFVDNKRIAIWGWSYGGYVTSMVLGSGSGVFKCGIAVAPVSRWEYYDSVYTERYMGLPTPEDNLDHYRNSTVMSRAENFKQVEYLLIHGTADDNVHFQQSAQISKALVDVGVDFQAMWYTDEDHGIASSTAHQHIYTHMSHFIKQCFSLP
Numbers only.

Reported DPP4 activity in library screen, Exp 3 for O=C([O-])C(O)Cc1ccc(O)c(O)c1.[Na+] (stereo not shown) [Sodium Danshensu] was 90.2

Input C[C@@H]1O[C@@H](O[C@H]2[C@H](Oc3cc(O)c(C(=O)CCc4ccc(O)cc4)c(O)c3)O[C@H](CO)[C@@H](O)[C@@H]2O)[C@H](O)[C@H](O)[C@H]1O [Naringin Dihydrochalcone] . Output DPP4 activity in library screen, Exp 3: 91.6

Kindly note the recorded DPP4 activity in library screen, Exp 3 for CC(=O)c1c(O)c(C)c(O)c2c1OC1=CC(=O)C(C(C)=O)C(=O)C12C (single isomer, unassigned; (+)) [(+)-Usniacin] , which is 89.7

Next:
Reported DPP4 activity in library screen, Exp 3 for Br.CCN1C[C@]2(OC(=O)c3ccccc3NC(C)=O)CC[C@H](OC)[C@]34C1[C@H](C[C@H]23)[C@@]1(O)C[C@H](OC)[C@H]2C[C@@H]4[C@]1(O)[C@H]2OC [Lappaconite HBr] was 92.6
